- System: HCT-15

{"columns": ["MOLECULE", "GI50"],
 "data": [
  ["CC1CSc2nc3nc(S)nc-3c(O)n2C1 (stereo not drawn)", "> 100 µM"],
  ["CC1=C(C(=O)CC(=O)C(=O)NC2C3CC4CC(C3)CC2C4)Sc2ccccc2N1 (stereo not drawn)", "> 71.4 µM"],
  ["Cc1cc(C)c(-c2no/c(=N\\S(=O)(=O)c3ccc(Cl)cc3)o2)c(C)c1", "> 100 µM"],
  ["O=C(NCCC1CN(S(=O)(=O)C(F)(F)F)c2ccccc21)OCc1ccccc1 (stereo not drawn)", "> 100 µM"],
  ["COc1ccc(C2CC(c3cc(C)ccc3O)=NC(N)=N2)cc1 (stereo not drawn)", "> 100 µM"],
  ["O=c1c2ccccc2nc(-c2ccccc2)n1NC(=S)Nc1ccc(Cl)cc1", "> 100 µM"],
  ["COc1ccc(C(=O)CC(c2ccccc2)[C@H]2C(c3ccc(OC)cc3)=Nc3c(nc(SC)n(C)c3=O)NC2c2ccccc2)cc1 (stereo partly drawn)", "> 100 µM"],
  ["CC1(O)CC(C(F)(F)F)(C(F)(F)F)OC1=O (stereo not drawn)", "> 10 µM"]
]}

====

- Tested on: HCT-116
- PROTOCOL_SUMMARY: NCI tumour cell line growth inhibition, 48 h
Activity calls are given as the source filed them. Rule as the data show it: active = GI50 up to about 1.1 µM and inactive = higher.
Classes used: active, inactive

{"columns": ["COMPOUND", "LABEL_VALUE"],
 "data": [
  ["COc1ccc2c(ccc3c(C(=O)NCCCN(C)CCCNC(=O)c4cn(C)c5c4ccc4cc(OC)ccc45)cn(C)c32)c1", "inactive"],
  ["N/C(=N\\c1ccc(Cl)c(Cl)c1)c1ccccc1N", "inactive"],
  ["Cc1ccc(-c2cn3c(nc4ccccc43)c(-c3ccccc3)n2)cc1", "inactive"],
  ["CC[S+](C)c1ccc(-c2c3nc(c(-c4ccc([S+](C)CC)cc4)c4ccc([nH]4)c(-c4ccc([S+](C)CC)cc4)c4nc(c(-c5ccc([S+](C)CC)cc5)c5ccc2[nH]5)C=C4)C=C3)cc1.[O-][Cl+3]([O-])([O-])[O-].[O-][Cl+3]([O-])([O-])[O-].[O-][Cl+3]([O-])([O-])[O-].[O-][Cl+3]([O-])([O-])[O-] (stereo not drawn)", "inactive"],
  ["COc1cc(S(=O)(=O)Nc2ccc(-c3csc(N4C(=O)C(Cl)C4c4cccc(Oc5ccccc5)c4)n3)cc2)ccc1Cl (stereo not drawn)", "inactive"],
  ["CC1CSc2nc3nc(S)nc-3c(O)n2C1 (stereo not drawn)", "inactive"],
  ["C[n+]1c2ccccc2c2/c(=C\\C#N)c3ccccc3n21", "inactive"],
  ["C[C@@H](CO)C1=CC(C#C[Si](C)(C)C)N(C(=O)Oc2ccccc2)c2ccccc21 (stereo partly drawn)", "inactive"],
  ["COc1cc2c(cc1O)CN1CCC23C=C[C@@H](O)CC13 (stereo partly drawn)", "inactive"],
  ["COC(=O)C1C=CCON2CCc3c(n(C)c4ccccc34)C12 (stereo not drawn)", "inactive"],
  ["COc1ccccc1C1(c2c(OC(C)C)c(=O)c2=O)SCCCS1", "inactive"],
  ["S=c1cc(S)c2c(=S)sc3nc4ccccn4c(=S)c3c2s1", "inactive"],
  ["COc1ccc(CCN2COc3ccc4ccc(=O)oc4c3C2)cc1OC", "inactive"],
  ["Cn1c(=O)c(-c2ccccc2)c(N=[N+]=[N-])c2ccccc21", "inactive"],
  ["COc1cc(CCNC2=CC(=O)c3nc[nH]c3C2=O)ccc1O", "inactive"],
  ["Cn1c(N/N=C/c2ccccc2)nc(-c2ccc([N+](=O)[O-])cc2)c(C#N)c1=O", "inactive"],
  ["O=c1[nH]c2cc([N+](=O)[O-])c(N/N=C/c3ccc(Cl)cc3Cl)c([N+](=O)[O-])c2[nH]1", "inactive"],
  ["C=CCCC1(CCP(=O)(c2ccccc2)c2ccccc2)OCCO1", "inactive"],
  ["C=C1C(C)C2C(Cc3ccccc3)NC(=O)C23C(OC(C)=O)/C=C/C(C)(O)CC(C)C/C=C/C3C1O (stereo not drawn)", "inactive"],
  ["Cc1c2cccc-2ccc2c1[nH]c1ccccc12", "inactive"],
  ["O=C(COC(=O)c1cccc2c(=O)c3ccccc3[nH]c12)Nc1ccccc1", "inactive"],
  ["O=C1C(Cl)=C(Nc2ccc(S(=O)(=O)O)cc2)C(=O)c2ccccc21", "inactive"],
  ["COC(=O)[C@H](CNC(=O)/C=C/c1ccc(OC(C)=O)c(OC(C)=O)c1)NC(=O)/C=C/c1ccc(OC(C)=O)c(OC(C)=O)c1", "inactive"],
  ["COc1cc(/C=C/c2ccc(OC)c(OC)c2OC)cc(OC)c1OC", "inactive"],
  ["CC1(C)COC2=C(C1)C(=O)c1ccccc1C2=O", "active"],
  ["Cc1ncc([N+](=O)[O-])n1CCNC(=O)CCCn1cnc([N+](=O)[O-])n1", "inactive"],
  ["CC1=NN(c2ccc(C)cc2)C2(C1)SCC(=O)N2c1nc2ccccc2s1 (stereo not drawn)", "inactive"],
  ["C[C@H](C(=O)N1C(=O)O[C@@H](c2ccccc2)[C@H]1C)[C@H](c1ccccc1)N(Cc1ccccc1)OC(=O)c1ccccc1", "inactive"]
]}
